As shown below, each of these binders has a reported IC50 value.
Biological target: T1, Fc-CLEC1 labelled with Alexa Fluor 488 (human, Alexa Fluor 488 label (sites not given))
T1 construct: also called Fc-CLEC1-A488; Alexa488-Fc-Clec-1
T1 chain: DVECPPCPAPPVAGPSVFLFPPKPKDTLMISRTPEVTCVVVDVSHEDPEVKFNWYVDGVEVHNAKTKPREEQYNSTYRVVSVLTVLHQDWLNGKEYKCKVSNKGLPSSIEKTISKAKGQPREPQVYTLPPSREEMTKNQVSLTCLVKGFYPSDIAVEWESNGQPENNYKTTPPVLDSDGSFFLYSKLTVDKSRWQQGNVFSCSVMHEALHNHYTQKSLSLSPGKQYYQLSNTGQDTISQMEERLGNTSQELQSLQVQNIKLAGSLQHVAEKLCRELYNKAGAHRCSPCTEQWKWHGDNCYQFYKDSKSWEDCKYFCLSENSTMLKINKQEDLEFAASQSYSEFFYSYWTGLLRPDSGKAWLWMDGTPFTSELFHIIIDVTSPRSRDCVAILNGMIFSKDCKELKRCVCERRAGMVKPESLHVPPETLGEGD
Assay: FACS competition: blocks Fc-CLEC1-A488 (10 nM) binding to CLEC-1 ligand on UV-treated PBMC; read-out % + cells

[
  {
    "binder": "murine anti-hCLEC1 antibody 10F4-H2 (antibody, V domains shown, Mouse hybridoma antibody) VH: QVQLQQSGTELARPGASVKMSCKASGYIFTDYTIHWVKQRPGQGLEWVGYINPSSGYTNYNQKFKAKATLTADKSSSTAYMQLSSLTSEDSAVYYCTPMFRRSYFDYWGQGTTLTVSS VL: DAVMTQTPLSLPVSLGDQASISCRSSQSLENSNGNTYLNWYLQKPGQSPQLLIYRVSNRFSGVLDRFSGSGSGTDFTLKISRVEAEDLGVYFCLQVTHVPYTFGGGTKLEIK",
    "IC50": "0.79 µg/mL"
  },
  {
    "binder": "murine anti-hCLEC1 antibody 5D1-A5 (antibody, V domains shown, Mouse hybridoma antibody) VH: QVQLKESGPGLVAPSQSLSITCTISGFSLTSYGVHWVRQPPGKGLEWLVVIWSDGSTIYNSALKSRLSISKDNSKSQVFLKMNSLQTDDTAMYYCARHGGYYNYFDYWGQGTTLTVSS VL: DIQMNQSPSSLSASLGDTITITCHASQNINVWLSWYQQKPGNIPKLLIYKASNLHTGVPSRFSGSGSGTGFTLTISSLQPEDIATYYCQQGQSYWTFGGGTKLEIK",
    "IC50": "0.13 µg/mL"
  },
  {
    "binder": "murine anti-hCLEC1 antibody 11H11-G11 (antibody, V domains shown, Mouse hybridoma antibody) VH: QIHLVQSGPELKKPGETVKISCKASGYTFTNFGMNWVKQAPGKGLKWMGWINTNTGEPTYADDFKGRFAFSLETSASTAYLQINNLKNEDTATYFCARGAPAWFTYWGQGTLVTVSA VL: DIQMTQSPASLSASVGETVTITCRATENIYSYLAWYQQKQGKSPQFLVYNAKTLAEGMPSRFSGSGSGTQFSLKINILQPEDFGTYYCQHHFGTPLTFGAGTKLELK",
    "IC50": "0.36 µg/mL"
  },
  {
    "binder": "murine anti-hCLEC1 antibody 15E3-G3 (antibody, V domains shown, Mouse hybridoma antibody) VH: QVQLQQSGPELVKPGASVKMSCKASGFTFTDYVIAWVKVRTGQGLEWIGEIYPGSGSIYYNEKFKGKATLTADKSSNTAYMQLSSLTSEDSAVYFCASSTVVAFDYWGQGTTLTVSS VL: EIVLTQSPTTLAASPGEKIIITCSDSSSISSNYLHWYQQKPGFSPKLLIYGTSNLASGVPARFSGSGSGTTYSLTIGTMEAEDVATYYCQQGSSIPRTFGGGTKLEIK",
    "IC50": "0.69 µg/mL"
  }
]
